tested on: CAL-120; assay: drug sensitivity score (DSS), CellTiter-Glo (DSS (AUC-based score)); higher = stronger drug effect (viability inhibition or cytotoxicity); extreme values may be limits of the assay; conditions: incubation time: 72 h
What drug sensitivity score was measured for each of the following?
Answers are plain numbers.

Please go through the list and note drug sensitivity score for each compound.
1. CCN(CC)CCOc1ccc(C(=C(Cl)c2ccccc2)c2ccccc2)cc1
2. CO[C@H]1C[C@@H]2CC[C@@H](C)[C@@](O)(O2)C(=O)C(=O)N2CCCC[C@H]2C(=O)O[C@H]([C@H](C)C[C@@H]2CC[C@@H](O)[C@H](OC)C2)CC(=O)[C@H](C)/C=C(\C)[C@@H](O)[C@@H](OC)C(=O)[C@H](C)C[C@H](C)/C=C/C=C/C=C/1C
3. COc1cc(Nc2ncc(F)c(Nc3ccc4c(n3)N(COP(=O)(O)O)C(=O)C(C)(C)O4)n2)cc(OC)c1OC
4. CCc1c(C(=O)C(N)=O)c2c(OCC(=O)O)cccc2n1Cc1ccccc1

1: 0; 2: 6; 3: 5.15; 4: 0

Hi team, please reply with drug sensitivity score for each item in this list.
1. Cc1c(N)nc([C@H](CC(N)=O)NC[C@H](N)C(N)=O)nc1C(=O)N[C@H](C(=O)N[C@H](C)[C@@H](O)[C@H](C)C(=O)N[C@H](C(=O)NCCc1nc(-c2nc(C(=O)NCCC[S+](C)C)cs2)cs1)[C@@H](C)O)[C@@H](OC1OC(CO)C(O)C(O)C1OC1OC(CO)C(O)C(OC(N)=O)C1O)c1cnc[nH]1 (stereo partly drawn)
2. CC/C(=C(\c1ccccc1)c1ccc(OCCN(C)C)cc1)c1ccccc1
3. Cn1nnc2c(C(N)=O)ncn2c1=O [Temozolomide]
4. CCCCCOC(=O)Nc1nc(=O)n([C@@H]2O[C@H](C)[C@@H](O)[C@H]2O)cc1F

1. 0.67
2. 0.0022
3. 0
4. 0

Recorded values, source the supplement of paper PMC4862054.
